Test system: HBeAg
Settings: 10 nM siRNA transfected into cells

Substance	HBeAg reduction HepG2.2.15 cells / %
40 (AGUCUGAAGAGUCAGAUGAUGUUCAUCAUCUGACUCUUCAGACUUU; siRNA; Self-complementary hairpin strand, chemistry not given here, further chemistry not given here; listed as Homo sapiens) [compound 40]	56
30 (AGGAUAAGAUCAAUGCCCUUCUUGAAGGGCAUUGAUCUUAUCCUUU; siRNA; Self-complementary hairpin strand, chemistry not given here, further chemistry not given here; listed as Homo sapiens) [compound 30]	58

====

System: RPLP2 protein
Assay: Target protein reduction by Western blot in HepG2.2.15 cells
Type: cell-based, human
Conditions: 10 nM siRNA, 72 h
Readout: Target protein reduction in HepG2.2.15 cells

Substance	Reported Measurement
45 (GGAAAAAACAUUGAAGACGUCUUGACGUCUUCAAUGUUUUUUCCUU; siRNA; Self-complementary hairpin strand, chemistry not given here, further chemistry not given here; listed as Homo sapiens) [compound 45]	61 ± 7%
37 (CUGAAUGGAAAAAACAUUGAAUUUUCAAUGUUUUUUCCAUUCAGUU; siRNA; Self-complementary hairpin strand, chemistry not given here, further chemistry not given here; listed as Homo sapiens) [compound 37]	71 ± 10%
38 (AGUGUACCUGCUGGUGGGGCUUUAGCCCCACCAGCAGGUACACUUU; siRNA; Self-complementary hairpin strand, chemistry not given here, further chemistry not given here; listed as Homo sapiens) [compound 38]	55 ± 2%

====

Tested on: HBeAg
Details: 10 nM siRNA transfected into cells

Substance	Target Under Test	HBeAg reduction HepG2.2.15 cells, %
25 (GAUCAAUGCCCUCAUUAAAGCTTUUUAAUGAGGGCAUUGAUCUUTT; siRNA; Self-complementary hairpin strand, chemistry not given here, further chemistry not given here; listed as Homo sapiens) [compound 25]	HBeAg	60
21 (CUGUUACAAUCAAGGUCUATTUAGACCUUGAUUGUAACAGTT; siRNA; Self-complementary hairpin strand, chemistry not given here, further chemistry not given here; listed as Homo sapiens) [compound 21]	HBeAg	61.5
41 (AUGGGAUUUGGCCUUUUUGAUUUAUCAAAAAGGCCAAAUCCCAUUU; siRNA; Self-complementary hairpin strand, chemistry not given here, further chemistry not given here; listed as Homo sapiens) [compound 41]	HBeAg	40
